B1: GNB5 (parent)
chain: DINSVRYYPSGDAFASGSDDATCR

Variants of: B1
experimental.protocol: protein stability index of a GFP-peptide fusion (GPS, HEK-293T) (PSI 1-6); higher = more stable;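 further: lentivirally expressed fusions sorted by FACS into six bins by GFP to DsRed ratio, PSI derived from sequencing read proportions per bin multiplied by bin number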
experimental.setup: c terminus: a fixed tail appended
measured.property: protein stability index

> print(dat)
    mutation.notation        measured.property  recorded.number
 1               A15I  protein stability index             3.43
 2               G11H  protein stability index             3.62
 3                S4K  protein stability index             4.08
 4                S4R  protein stability index             3.81
 5               F14P  protein stability index             4.38
 6               D19P  protein stability index              3.4
 7               G17V  protein stability index             3.65
 8               A13R  protein stability index             3.81
 9               A13W  protein stability index             3.42
10               D19M  protein stability index             2.95
11               S10C  protein stability index             3.49
12                Y8S  protein stability index             3.94
13               G17E  protein stability index             4.34
14               D20R  protein stability index              3.2
15                S4E  protein stability index             4.29
16                R6M  protein stability index             4.04
17               T22C  protein stability index             3.65
18                V5C  protein stability index             3.81
19               A21D  protein stability index             4.34
20                S4Q  protein stability index             3.83
21               S10D  protein stability index             4.32
22               S18Y  protein stability index             3.43
23               S10H  protein stability index             3.65
24                Y7C  protein stability index             3.87
25               T22E  protein stability index             4.86
26               A21V  protein stability index             3.72
27               S16V  protein stability index             3.84
28                P9L  protein stability index             3.26
29                Y8K  protein stability index             3.79
30                V5Q  protein stability index             3.85
31               F14W  protein stability index             3.94
32               G17L  protein stability index             3.12
33                D1S  protein stability index             4.74
34               D20A  protein stability index             3.44
35                P9F  protein stability index             2.74
36               R24E  protein stability index             4.71
37                I2F  protein stability index             3.98
38               G11N  protein stability index             3.81
39                P9K  protein stability index             3.62
40               S10N  protein stability index             3.95
41               A21M  protein stability index             3.44
42                I2L  protein stability index             3.82
43               A13C  protein stability index             3.71
44               D20N  protein stability index             3.42
45               D20G  protein stability index             3.61
46                R6H  protein stability index             4.26
